Molecular target: FZD7 cysteine-rich domain (CRD), MYC-tagged and GPI-anchored on CHO cells (human, UniProt O75084 45-169)
Assay: immunofluorescence, CHO-CRD cells
measurement-name: binding result

Here is how some binders turned out for binding result.
INSERT INTO results (binder, measurement_name, experimental_result) VALUES
  ('Fab-2936 (Fab, V domains shown, Fab; also called Fv-2936) VH: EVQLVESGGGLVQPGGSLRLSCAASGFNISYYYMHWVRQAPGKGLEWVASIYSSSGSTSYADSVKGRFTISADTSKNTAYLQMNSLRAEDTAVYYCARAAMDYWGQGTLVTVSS VL: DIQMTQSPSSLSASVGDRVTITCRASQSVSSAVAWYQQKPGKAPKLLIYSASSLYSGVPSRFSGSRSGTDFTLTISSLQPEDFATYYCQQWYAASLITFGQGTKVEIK', 'binding result', 'no binding'),
  ('Fab-2923 (Fab, V domains shown, Fab; also called Fv-2923) VH: EVQLVESGGGLVQPGGSLRLSCAASGFNLYYYYMHWVRQAPGKGLEWVASIYSSSGSTSYADSVKGRFTISADTSKNTAYLQMNSLRAEDTAVYYCARGAMDYWGQGTLVTVSS VL: DIQMTQSPSSLSASVGDRVTITCRASQSVSSAVAWYQQKPGKAPKLLIYSASSLYSGVPSRFSGSRSGTDFTLTISSLQPEDFATYYCQQWYGYSALITFGQGTKVEIK', 'binding result', 'no binding'),
  ('Fab-2922 (Fab, V domains shown, Fab; also called Fv-2922) VH: EVQLVESGGGLVQPGGSLRLSCAASGFNIYSSYMHWVRQAPGKGLEWVASISPYSGYTSYADSVKGRFTISADTSKNTAYLQMNSLRAEDTAVYYCARTVRGSKKPYFSGWAMDYWGQGTLVTVSS VL: DIQMTQSPSSLSASVGDRVTITCRASQSVSSAVAWYQQKPGKAPKLLIYSASSLYSGVPSRFSGSRSGTDFTLTISSLQPEDFATYYCQQSFVYPYLITFGQGTKVEIK', 'binding result', 'no binding'),
  ('Fab-2924 (Fab, V domains shown, Fab; also called Fv-2924) VH: EVQLVESGGGLVQPGGSLRLSCAASGFNISYSYIHWVRQAPGKGLEWVASIYSYYSSTSYADSVKGRFTISADTSKNTAYLQMNSLRAEDTAVYYCARGALDYWGQGTLVTVSS VL: DIQMTQSPSSLSASVGDRVTITCRASQSVSSAVAWYQQKPGKAPKLLIYSASSLYSGVPSRFSGSRSGTDFTLTISSLQPEDFATYYCQQWYSGHSLITFGQGTKVEIK', 'binding result', 'no binding'),
  ('Fab-2926 (Fab, V domains shown, Fab; also called Fv-2926) VH: EVQLVESGGGLVQPGGSLRLSCAASGFNIYSSYMHWVRQAPGKGLEWVASIYPSSSSTSYADSVKGRFTISADTSKNTAYLQMNSLRAEDTAVYYCARGGLDYWGQGTLVTVSS VL: DIQMTQSPSSLSASVGDRVTITCRASQSVSSAVAWYQQKPGKAPKLLIYSASSLYSGVPSRFSGSRSGTDFTLTISSLQPEDFATYYCQQWYHGGSLFTFGQGTKVEIK', 'binding result', 'no binding'),
  ('Fab-2934 (Fab, V domains shown, Fab; also called Fv-2934) VH: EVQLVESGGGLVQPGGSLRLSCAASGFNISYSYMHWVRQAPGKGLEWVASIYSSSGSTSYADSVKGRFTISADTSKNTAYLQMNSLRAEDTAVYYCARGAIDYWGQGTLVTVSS VL: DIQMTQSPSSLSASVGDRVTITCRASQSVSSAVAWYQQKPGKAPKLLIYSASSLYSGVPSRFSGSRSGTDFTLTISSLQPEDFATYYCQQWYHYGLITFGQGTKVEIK', 'binding result', 'no binding'),
  ('Fab-2935 (Fab, V domains shown, Fab; also called Fv-2935) VH: EVQLVESGGGLVQPGGSLRLSCAASGFNIYYYYIHWVRQAPGKGLEWVASIYPSSGSTSYADSVKGRFTISADTSKNTAYLQMNSLRAEDTAVYYCARAAFDYWGQGTLVTVSS VL: DIQMTQSPSSLSASVGDRVTITCRASQSVSSAVAWYQQKPGKAPKLLIYSASSLYSGVPSRFSGSRSGTDFTLTISSLQPEDFATYYCQQWYGGYALITFGQGTKVEIK', 'binding result', 'no binding');

Hello, please tell me recorded binding result for this one: Fab-2920 (Fab, V domains shown, Fab) VH: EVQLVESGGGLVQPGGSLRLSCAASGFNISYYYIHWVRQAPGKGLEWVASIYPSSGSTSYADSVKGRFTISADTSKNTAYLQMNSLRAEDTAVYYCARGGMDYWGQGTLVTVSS VL: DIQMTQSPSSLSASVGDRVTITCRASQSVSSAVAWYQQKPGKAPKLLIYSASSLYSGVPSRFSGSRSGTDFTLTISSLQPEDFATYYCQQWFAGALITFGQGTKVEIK
no binding
